assay: Stability of the compound assessed as half life in aqueous buffer at 40 degC
Give half-life for every item shown.

Name the recorded half-life of the item CN1CC(C)(CO)N(Cl)C1=O (stereo unspecified) in your answer.
> 58 days

Supply recorded half-life for CC1(C)C(=O)N(CCCS(=O)(=O)[O-])C(C)(C)N1Cl.[Na+] here.
> 249 days

Report half-life, nothing else, for this molecule: CC1(C)C(=O)N(CCC[N+](C)(C)C)C(=O)N1Cl.[Cl-]
4 days

Report half-life for CC1(C)CN(CCS(=O)(=O)[O-])C(=O)N1Cl.[Na+]
> 92 days

Return reported half-life. Input molecule: CC1(C)C(=O)N(CC[n+]2ccccc2)C(=O)N1Cl.[Cl-]
4 days

Give the reported value of half-life for this record: CC1(C)C(=O)N(CCCCC[N+](C)(C)C)C(=O)N1Cl.[Cl-]
22 days

Give the value of half-life reported for the following: CC1(C)C(=O)N(CCCCS(=O)(=O)[O-])C(C)(C)N1Cl.[Na+]
> 84 days

// fetch half-life given entry CC1(C)C(=O)N(CCCCC[N+](C)(C)C)C(C)(C)N1Cl.[Cl-]
> 160 days

Tell me measured half-life for CC1(C)C(=O)N(CCO)CC(=O)N1Cl please.
< 1 days

// Input: CC1(C)C(=O)N(CCS(=O)(=O)[O-])CC(=O)N1Cl.[Na+] . Output its half-life only.
90 days

Quick one: give measured half-life for CC1(C)CC(=O)CC(C)(C)N1Cl
< 1 days

Every entry's value here was drawn from ChEMBL document CHEMBL1770092.
